Measured values drawn from PubChem BioAssay (Tox21) for this set.

# EXPERIMENT_DESCRIPTION: A CellTox Green Cytotoxicity Assay to monitor cytotoxicity in HepG2 cells - 40 hour (AID 1224879); note: nearly all actives have a fitted effect of over 40% in size
# TEST_CONTEXT: CellTox Green fluorescence; series mostly up to 76.8 µM
Records with an inconclusive call do not appear. Activity calls are given as the source filed them. Calls come from the whole dose curve; as a rule, active = well fitted activation curve with a large enough effect in the repeat runs; inconclusive = weak or mixed curves; inactive = flat fitted curve, though single readings scatter.
Returns: one label drawn from 1.0 for active, 0.0 for inactive

Exam item: Which outcome was entered for the compound Cc1c(N)cccc1C(F)(F)F in this test?
Marked response: 0.0

Exam item: Which outcome was entered for the compound O=C1CCc2cc(OCCCCc3nnnn3C3CCCCC3)ccc2N1 in this test?
Marked response: 0.0

Exam item: Which outcome was entered for the compound CCOC(=O)NNc1ccc(N(CC)CC(C)O)nn1 (stereo unspecified) in this test?
Marked response: 0.0

Exam item: Which outcome was entered for the compound Cc1ccc(N/N=c2\c(=O)cc/c(=N\Nc3ccc(S(=O)(=O)O)cc3)c2=O)c(C)c1 in this test?
Marked response: 0.0

Exam item: Which outcome was entered for the compound CCCC[P+](C)(CCCC)CCCC in this test?
Marked response: 0.0

Exam item: Which outcome was entered for the compound Nc1nc2c(ncn2COCCO)c(=O)[nH]1 in this test?
Marked response: 0.0

Exam item: Which outcome was entered for the compound C=CCn1c(=O)n(CC=C)c(=O)n(CC=C)c1=O in this test?
Marked response: 0.0

Exam item: Which outcome was entered for the compound CCOC(=O)Cn1cccc1-c1nc(-c2ccc(OC)cc2)c(-c2ccc(OC)cc2)s1 in this test?
Marked response: 0.0

Exam item: Which outcome was entered for the compound CC(CO)Oc1ccccc1 (stereo unspecified) in this test?
Marked response: 0.0

Exam item: Which outcome was entered for the compound C=CCCC(=O)/C=C/C1C(C)=CCCC1(C)C (stereo unspecified) in this test?
Marked response: 0.0

Exam item: Which outcome was entered for the compound CCC(C)n1ncn(-c2ccc(N3CCN(c4ccc(OC[C@H]5CO[C@](Cn6cncn6)(c6ccc(Cl)cc6Cl)O5)cc4)CC3)cc2)c1=O (stereo partly specified) in this test?
Marked response: 0.0

Exam item: Which outcome was entered for the compound Nc1nc(N)nc(-c2cc(Cl)ccc2Cl)n1 in this test?
Marked response: 0.0

Exam item: Which outcome was entered for the compound CN(C)CCN1CCN(c2cccc(Cl)c2)C1=O in this test?
Marked response: 0.0

Exam item: Which outcome was entered for the compound O=C(O)c1cc(O)c2ccccc2c1O in this test?
Marked response: 1.0

Exam item: Which outcome was entered for the compound O=C(O)Cc1ccccc1Nc1c(Cl)cccc1Cl in this test?
Marked response: 0.0

Exam item: Which outcome was entered for the compound CC(C(=O)O)c1ccc2c(c1)[nH]c1ccc(Cl)cc12 (stereo unspecified) in this test?
Marked response: 0.0

Exam item: Which outcome was entered for the compound COc1ccc(-c2coc3cc(O)ccc3c2=O)cc1 in this test?
Marked response: 0.0

Exam item: Which outcome was entered for the compound CCCCCc1ccc(Cl)cc1 in this test?
Marked response: 0.0

Exam item: Which outcome was entered for the compound C=CC(C)(CCC=C(C)C)OC=O (stereo unspecified) in this test?
Marked response: 0.0

Exam item: Which outcome was entered for the compound O=C(O)c1cc(-c2ccc(F)cc2F)ccc1O in this test?
Marked response: 0.0

Exam item: Which outcome was entered for the compound CCCCOC(=O)CO in this test?
Marked response: 0.0

Exam item: Which outcome was entered for the compound Cc1c(F)c(N2CCNC(C)C2)cc2c1c(=O)c(C(=O)O)cn2C1CC1 (stereo unspecified) in this test?
Marked response: 0.0

Exam item: Which outcome was entered for the compound O[C@@H]([C@H](O)[C@H](O)CBr)[C@H](O)CBr in this test?
Marked response: 0.0

Exam item: Which outcome was entered for the compound CNC(=O)c1ccccc1Sc1ccc2c(/C=C/c3ccccn3)n[nH]c2c1 in this test?
Marked response: 0.0

Exam item: Which outcome was entered for the compound OCCN1CCN(CCCN2c3ccccc3Sc3ccc(C(F)(F)F)cc32)CC1 in this test?
Marked response: 1.0

Exam item: Which outcome was entered for the compound Cc1cc(C)c(/C=C2\C(=O)Nc3ccccc32)[nH]1 in this test?
Marked response: 1.0

====

# TESTED_SYSTEM: Progesterone receptor (Homo sapiens)
# EXPERIMENT_DESCRIPTION: qHTS assay to identify small molecule agonists of the progesterone receptor (PR) signaling pathway (AID 1346784); note: nearly all actives have a fitted effect of over 30% in size
# TEST_CONTEXT: PR-UAS-bla HEK293T, beta-lactamase FRET ratio, 16 h; series mostly up to 92.4 µM
Inconclusive results are not listed. Activity calls are given as the source filed them. Calls follow the shape of the full dose curve.
METRIC: outcome

Please review the entries below; each comes with its answer.
{"COMPOUND": "O=C(O)c1cc(N=Nc2ccc([N+](=O)[O-])cc2)ccc1O", "outcome": "inactive"}
{"COMPOUND": "OC1CCC(C2CCCCC2)CC1 (configuration not stated)", "outcome": "inactive"}
{"COMPOUND": "CCCCC(CC)CN1CN(CC(CC)CCCC)CC(C)(N)C1 (configuration not stated)", "outcome": "inactive"}
{"COMPOUND": "c1ccc(C(O[C@@H]2CCCN(CCc3ccc4c(c3)OCO4)C2)c2ccccc2)cc1", "outcome": "inactive"}
{"COMPOUND": "CC(C)OC(=O)C(O)(CC(=O)O)CC(=O)O", "outcome": "inactive"}

Exam item: Give the measured outcome of CCCCCCCCCCCCCC[N+](C)(C)C .
Marked response: inactive

Exam item: Give the measured outcome of COc1ccc2cc1Oc1ccc(cc1)C[C@H]1c3c(cc4c(c3Oc3cc5c(cc3OC)CCN(C)[C@@H]5C2)OCO4)CCN1C .
Marked response: inactive

Exam item: Give the measured outcome of [Cl][Pt-2]([Cl])([Cl])[Cl] .
Marked response: inactive

Exam item: Give the measured outcome of Nc1nc(N)nc(-c2cc(Cl)ccc2Cl)n1 .
Marked response: inactive

Exam item: Give the measured outcome of O=C1CCCCCCCCCCCCCCCO1 .
Marked response: inactive

Exam item: Give the measured outcome of Cc1nc2n(c(=O)c1CCN1CCC(c3noc4cc(F)ccc34)CC1)CCCC2 .
Marked response: inactive

Exam item: Give the measured outcome of O=S(=O)(O)c1ccc(N=Nc2c(O)ccc3ccccc23)cc1 .
Marked response: inactive

====

# EXPERIMENT_DESCRIPTION: qHTS assay to identify small molecule antagonists of the retinoid acid receptor (RAR) signaling pathway - cell viability counter screen (AID 1159551); note: nearly all actives have a fitted effect of over 35% in size
# TEST_CONTEXT: C3RL4 cells viability, ATP luminescence (CellTiter-Glo), 6 h; series mostly up to 92.4 µM
Inconclusive results are not listed. The source made the active and inactive calls. Calls follow the shape of the dose curve; as a rule, active = well fitted cell-killing curve with a large enough effect in the repeat runs; inconclusive = weak or mixed curves, or effect the other way; inactive = flat fitted curve, though single readings scatter.
METRIC: activity change, negative = cytotoxicity

Please review the entries below; each comes with its answer.
{"COMPOUND": "CCN1C(=O)c2ccccc2C1Nc1ccc(OCCN2CCCCC2)cc1 (stereo not given)", "METRIC": "activity change, negative = cytotoxicity", "VALUE_REPORTED": "inactive"}
{"COMPOUND": "CCCC(=O)OCOC(=O)C1=C(C)NC(C)=C(C(=O)OC)C1c1cccc(Cl)c1Cl (stereo not given)", "METRIC": "activity change, negative = cytotoxicity", "VALUE_REPORTED": "inactive"}
{"COMPOUND": "CCCCN(CCCC)CC(O)c1cc(Cl)cc2c1-c1ccc(Cl)cc1/C2=C/c1ccc(Cl)cc1 (stereo not given)", "METRIC": "activity change, negative = cytotoxicity", "VALUE_REPORTED": "inactive"}
{"COMPOUND": "CN1CCCCC1CCN1c2ccccc2Sc2ccc(S(C)=O)cc21 (stereo not given)", "METRIC": "activity change, negative = cytotoxicity", "VALUE_REPORTED": "inactive"}

Next:
Exam item: Give the measured activity change, negative = cytotoxicity of CN1CCN(Cc2cc(-c3ccc4[nH]c(=O)oc4c3)co2)[C@@H](c2ccc(F)cc2)C1 .
Marked response: inactive

====

# EXPERIMENT_DESCRIPTION: qHTS assay to identify small molecule antagonists of the estrogen related receptor signaling pathway with the pleiotropic PPARgamma coactivator (PGC) from Tox21 10K library - cell viability counter screen (AID 1224840); note: nearly all actives have a fitted effect of over 40% in size
# TEST_CONTEXT: PGC/ERR reporter cells viability, CellTiter-Fluor, 17.5 h; series mostly up to 92.4 µM
Records with an inconclusive call do not appear. Calls of active or inactive are those of the source. The call rests on the fitted dose curve; in most records, active means well fitted cell-killing curve with a large enough effect in the repeat runs (not every such curve was filed as active); inconclusive means weak or mixed curves, or effect the other way; inactive means no such curve, though single readings can be large or run the other way.
Returns: one label drawn from t (active), f (inactive)

Exam item: Which outcome was entered for the molecule C#C[C@]1(O)CC[C@H]2[C@@H]3[C@H](C)CC4=C(CCC(=O)C4)[C@H]3CC[C@@]21C in this test?
Marked response: f

Exam item: Which outcome was entered for the molecule COC(=O)c1ccccc1OC in this test?
Marked response: f

Exam item: Which outcome was entered for the molecule O=c1[nH]c2ccccc2n1CCCN1CCN(C(c2ccccc2)c2ccccc2)CC1 in this test?
Marked response: t

Exam item: Which outcome was entered for the molecule CC(C)NC[C@@H](O)COc1ccc(CC(N)=O)cc1 in this test?
Marked response: f

Exam item: Which outcome was entered for the molecule CC(CCc1ccccc1)NCC(O)c1ccc(O)c(C(N)=O)c1 (configuration not stated) in this test?
Marked response: f

Exam item: Which outcome was entered for the molecule O=C1NC(=O)[C@@H]2CC=CC[C@H]12 in this test?
Marked response: f

Exam item: Which outcome was entered for the molecule Cc1cc(=O)oc2cc(O)cc(O)c12 in this test?
Marked response: f

Exam item: Which outcome was entered for the molecule CC(C)(C)NSc1nc2ccccc2s1 in this test?
Marked response: f

Exam item: Which outcome was entered for the molecule Cc1cc(C(C)(C)C)cc(C)c1CC1=NCCN1 in this test?
Marked response: f

Exam item: Which outcome was entered for the molecule COc1cc(C)ccc1O in this test?
Marked response: f

Exam item: Which outcome was entered for the molecule C=CCn1c(=O)n(CC=C)c(=O)n(CC=C)c1=O in this test?
Marked response: f

Exam item: Which outcome was entered for the molecule O=C(Nc1ccc2c(O)c(N=Nc3ccc(N=Nc4ccc(S(=O)(=O)O)cc4)cc3)c(S(=O)(=O)O)cc2c1)c1ccccc1 in this test?
Marked response: t
